System: FT3469 (normal neural stem cell line);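 also: cell Painting imaging in 384-well plates, CellProfiler features reduced to at least 20 principal components, Euclidean distance versus same-plate DMSO vehicle wells (0.1% v/v), median over six images per well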
Assay: phenotypic distance (Euclidean, principal components) from DMSO controls (arbitrary units); higher = stronger morphological change
Settings: 3000 nM; exposure time: 72 h
Where a name gives a salt, the structure may show the parent alone.
quantity: phenotypic distance
Lab note: record the figure alone, no unit after it.

Study these solved cases before continuing.
>>> number("NCc1ccccc1CC(=O)N[C@@H]1C(=O)N2C(C(=O)O)=C(CSc3nnnn3CC(=O)O)CS[C@H]12 [Ceforanide]")
1.28
>>> number("CCN(CC)Cc1ccc(C(=O)N(CCc2ccccc2OC)[C@@H]2CCNC2)cc1")
2.24
>>> number("CCc1c2c(nc3ccc(OC(=O)N4CCC(N5CCCCC5)CC4)cc13)-c1cc3c(c(=O)n1C2)COC(=O)[C@]3(O)CC [Irinotecan]")
2.46
>>> number("N=c1ccn2c(n1)O[C@H]1[C@H](O)[C@@H](CO)O[C@H]12 [Ancitabine hydrochloride]")
2.06
>>> number("COC(=O)C1=C(C)NC(C)=C(C(=O)OCC(C)C)C1c1ccccc1[N+](=O)[O-] (stereo unspecified) [Nisoldipine]")
0.987

Please find the next compound below.
Param item = CC(=O)O[C@H]1C[C@H](O[C@H]2[C@@H](O)C[C@H](O[C@H]3[C@@H](O)C[C@H](O[C@H]4CC[C@@]5(C)[C@H](CC[C@@H]6[C@@H]5C[C@@H](O)[C@]5(C)[C@@H](C7=CC(=O)OC7)CC[C@]65O)C4)O[C@@H]3C)O[C@@H]2C)O[C@H](C)[C@H]1O[C@@H]1O[C@H](CO)[C@@H](O)[C@H](O)[C@H]1O [Lanatoside C] ; retrieve measured phenotypic distance. 3.74
